Source of measurements: patent US12679822B2

Here, each record is paired with measured GI50 data.
target: BaF3 cell lines stably transfected with kinase EGFR L858R/T790M (Homo sapiens, UniProt P00533, T790M/L858R, cells depend on it); assay: Growth inhibition of BaF3 cell line stably transfected with kinase EGFR L858R/T790M (MTS); assay type: cell-based; conditions: 48 h, read-out: growth inhibitory activity IC50, L858R/T790M
Sequence (P00533 whole entry T790M/L858R): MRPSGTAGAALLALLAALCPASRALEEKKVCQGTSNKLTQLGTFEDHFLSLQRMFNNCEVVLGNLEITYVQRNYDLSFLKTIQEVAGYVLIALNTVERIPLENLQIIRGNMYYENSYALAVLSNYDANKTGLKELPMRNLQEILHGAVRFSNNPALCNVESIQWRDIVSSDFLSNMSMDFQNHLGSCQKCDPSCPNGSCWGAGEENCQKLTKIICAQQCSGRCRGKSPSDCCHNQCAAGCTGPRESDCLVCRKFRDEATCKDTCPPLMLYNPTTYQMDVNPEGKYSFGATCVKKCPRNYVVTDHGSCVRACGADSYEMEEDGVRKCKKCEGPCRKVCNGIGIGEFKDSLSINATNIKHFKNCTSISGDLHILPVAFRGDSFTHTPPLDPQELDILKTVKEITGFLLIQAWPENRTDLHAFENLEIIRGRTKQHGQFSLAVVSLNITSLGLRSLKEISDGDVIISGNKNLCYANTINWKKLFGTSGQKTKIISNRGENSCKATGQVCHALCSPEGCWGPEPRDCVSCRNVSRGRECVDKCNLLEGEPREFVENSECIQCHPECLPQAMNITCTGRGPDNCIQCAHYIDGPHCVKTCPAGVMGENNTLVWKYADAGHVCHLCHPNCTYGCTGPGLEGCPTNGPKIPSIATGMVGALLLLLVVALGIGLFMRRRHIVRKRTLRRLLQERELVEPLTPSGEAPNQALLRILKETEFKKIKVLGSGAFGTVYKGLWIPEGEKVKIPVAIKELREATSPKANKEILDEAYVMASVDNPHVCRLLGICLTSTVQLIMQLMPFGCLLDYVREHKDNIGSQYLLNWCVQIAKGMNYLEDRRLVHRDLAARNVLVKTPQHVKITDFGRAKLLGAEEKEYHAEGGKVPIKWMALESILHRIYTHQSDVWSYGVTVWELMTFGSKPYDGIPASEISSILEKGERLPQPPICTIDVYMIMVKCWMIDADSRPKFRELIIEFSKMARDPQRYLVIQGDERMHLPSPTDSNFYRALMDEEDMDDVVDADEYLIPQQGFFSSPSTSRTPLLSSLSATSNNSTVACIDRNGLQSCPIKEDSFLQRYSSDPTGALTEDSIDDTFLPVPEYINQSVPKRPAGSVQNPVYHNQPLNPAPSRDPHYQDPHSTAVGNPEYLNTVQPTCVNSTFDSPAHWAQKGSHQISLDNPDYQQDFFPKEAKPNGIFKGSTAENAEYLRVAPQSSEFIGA
attribute.measured: GI50

> print(dat)
                                   compound  attribute.measured    test.value
1  C=Cc1cnc(Nc2cc(F)c(N3CCC(N4CCN(C)CC4)CC3)c(F)c2)nc1Nc1ccc2nccnc2c1NS(C)(=O)=O [II-46]                GI50       ≤ 50 nM
2  C=Cc1cnc(Nc2cc(CC)c(N3CCC(N(C)C)C3)cc2OC)nc1Nc1ccc2nccnc2c1S(=O)(=O)NC (centres unmarked) [IV-14]                GI50  50 to 500 nM
3  C=Cc1cnc(Nc2cccc(C3CCN(C)CC3)c2)nc1Nc1ccc2nccnc2c1P(C)(C)=O [Compound I-22]                GI50       ≤ 50 nM
4  C=Cc1cnc(Nc2cc(CC)c(N3CCC(N4CCN(C)CC4)CC3)nc2OC)nc1Nc1ccc2nccnc2c1NS(C)(=O)=O [II-33]                GI50  50 to 500 nM
5  C=Cc1cnc(Nc2cc(CC)c(N(C)CCN(C)C)cc2OC)nc1Nc1ccc2nccnc2c1N(C)S(C)(=O)=O [II-51]                GI50  50 to 500 nM
